Biological target: T1, Avi/HisMsIL18BPd (recombinant mouse IL-18BP with Avi and poly-His tags) (mouse, biotinylated with BirA on the Avi tag in some assays)
T1 construct: also called murine IL-18BP; IL-18BP-Avi-His (mouse)
T1 chain: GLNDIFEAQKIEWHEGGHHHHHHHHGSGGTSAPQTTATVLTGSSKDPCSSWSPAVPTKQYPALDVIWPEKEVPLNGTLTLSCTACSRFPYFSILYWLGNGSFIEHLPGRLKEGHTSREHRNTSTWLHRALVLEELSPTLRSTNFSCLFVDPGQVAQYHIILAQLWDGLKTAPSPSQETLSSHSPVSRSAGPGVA
Assay: ELISA, coated IL-18BP
RESULT TYPE: ELISA binding ratio (fold-change over background)

>  <BINDER>
anti-IL18BP antibody BP-09 (antibody, human IgG1, V domains shown) VH: QVQLQQSGAELVRPGASVTLSCKASGYRFTDYAMHWVKQTPVHGLQWIGIIDPETGDTAFNQKFKGKATLTADKSSSTAYMELSSLTSEDSAVYYCTRPRGAMDYWGQGTSVTVSS VL: DIVMTQSHKFMSTSGGDRVSITCKASQDVGTAVAWYQQKPGISPKLLIYWASTRHTGVPDRFTGSGSGTDFTLAISNVQSEDLADYFCQQYSSHPYTFGGGTKLEIK

>  <MEASURED RESULT>
32.7 fold over background

$$$$
>  <BINDER>
anti-IL18BP antibody BP-14 (antibody, human IgG1, V domains shown) VH: QVQLVQSGAEVKKPGASVKVSCKASGYTFTGYYMHWVRQAPGQGLEWMGIINPRGGSTSHAQKFQGRVTMTRDTSTSTVYMELSSLRSEDTAVYYCARGLELHWFDPWGQGTLVTVSS VL: DIQMTQSPSSLSASVGDRVTITCRASQNIRSWLAWYQQKPGKAPKLLIYAASSLQSGVPSRFSGSGSGTDFTLTISSLQPEDFATYYCQQANSFPYTFGQGTKLEIK

>  <MEASURED RESULT>
45.1 fold over background

$$$$
>  <BINDER>
anti-IL18BP antibody BP-13 (antibody, human IgG1, V domains shown) VH: QVQLQQSGAELVRPGASVTLSCKASGYTFTDYEMHWVKQTPVHGLEWIGPIDPETGDTAYNQKFKGQATLTADKSSSTAYMELSSLTSEDSAVYYCTRGSRGVFDYWGQGTALTVSS VL: DIVMTQSHKFMSTSVGDRVSITCKASQDVGTAVAWYQQKPGQSPKLLIYWASARHTGVPDRFTGSGSGTDFTLTISNVQSEDLADYFCQHYFNFPRTFGGGTKLEIT

>  <MEASURED RESULT>
16.9 fold over background

$$$$
